Test system: Sp2/0-Ag14 mouse myeloma cells
Assay: Effect on number of viable Sp2/0-Ag14 cells in culture (trypan blue dye exclusion count)
Settings: mouse, sp2/0-ag14 cells, 48 h
Method: In the experiments the newest methods approved by the scientific literature were used. […] The number of viable Sp2/0-Ag14 and K562 cells was then counted microscopically with the trypan blue dye exclusion method. The survival of HeLa, HEp-2 and Vero cells was measured by assessing the endogenous alkaline phosphatase activity of the cells. Results were evaluated using Student's t-test. […]
EXPERIMENTAL READOUT: IN % OF THE UN-TREATED CELLS (%)
Give a bare numeral; the unit % is implied.

// solved cases for IN % OF THE UN-TREATED CELLS follow
COMPOUND: Cc1cc2nc3c(=O)[nH]c(=O)nc-3n(C[C@H](O)[C@H](O)[C@H](O)CO)c2cc1C [Control 29, riboflavin]
READOUT UNIT: %
NUMERIC VALUE: 103.5

COMPOUND: CSCC[C@H](N)C(=O)O [Control 27, L-methionine]
READOUT UNIT: %
NUMERIC VALUE: 98.7

COMPOUND: Cc1ncc(CO)c(CO)c1O [Control 26, pyridoxine]
READOUT UNIT: %
NUMERIC VALUE: 91.0

COMPOUND: Cc1cc2nc3c(=O)[nH]c(=O)nc-3n(C[C@H](O)[C@H](O)[C@H](O)COP(=O)(O)O)c2cc1C [Control 32, riboflavin-5'-phosphate]
READOUT UNIT: %
NUMERIC VALUE: 98.9

COMPOUND: O=C(O)CCCC[C@@H]1SC[C@@H]2NC(=O)N[C@@H]21 [Control 25, d-biotin]
READOUT UNIT: %
NUMERIC VALUE: 99.9

Record summary for O=C[C@@H](O)[C@@H](O)[C@H](O)[C@H](O)CO [Control 30, D-mannose] : reported IN % OF THE UN-TREATED CELLS = 98.4

Record summary for O=C(O)c1cc(=O)[nH]c(=O)[nH]1 [Control 33, orotic acid] : reported IN % OF THE UN-TREATED CELLS = 94.2

Record summary for N[C@@H](Cc1c[nH]cn1)C(=O)O [Control 24, L-histidine] : reported IN % OF THE UN-TREATED CELLS = 108.7

Record summary for O=C(O)CNC(=O)c1ccccc1 [Control 31, N-benzoylglycine] : reported IN % OF THE UN-TREATED CELLS = 99.8

====

system: Sp2/0-Ag14 mouse myeloma cells; assay: Effect on number of viable Sp2/0-Ag14 cells in culture (trypan blue dye exclusion count); conditions: mouse, sp2/0-ag14 cells, 48 h
EXPERIMENTAL READOUT: IN% OF THE UNTREATED CELLS (%)
Give a bare numeral; the unit % is implied.

COMPOUND: O=CC[C@H](O)[C@H](O)CO [Control 8, 2-deoxy-D-ribose]
READOUT UNIT: %
IN% OF THE UNTREATED CELLS: 99.9

COMPOUND: N[C@@H](Cc1c[nH]c2ccccc12)C(=O)O [Control 4, L-tryptophan]
READOUT UNIT: %
IN% OF THE UNTREATED CELLS: 106.6

COMPOUND: O=C1O[C@H]([C@@H](O)CO)C(O)=C1O [Control 20, L-ascorbic acid]
READOUT UNIT: %
IN% OF THE UNTREATED CELLS: 95.2

COMPOUND: Nc1ncnc2nc[nH]c12 [Control 10, adenine]
READOUT UNIT: %
IN% OF THE UNTREATED CELLS: 102.4

Record summary for O=CC[C@H](O)[C@H](O)CO [Control 7, 2-deoxy-D-ribose] : reported IN% OF THE UNTREATED CELLS = 101.1

Record summary for O=C(O)CC(O)C(=O)O (centres unmarked) [Control 16, malic acid] : reported IN% OF THE UNTREATED CELLS = 99.5

Record summary for N[C@@H](Cc1c[nH]c2ccccc12)C(=O)O [Control 2, L-tryptophan] : reported IN% OF THE UNTREATED CELLS = 104.4

Record summary for O=C(O)CC(O)C(=O)O (centres unmarked) [Control 14, malic acid] : reported IN% OF THE UNTREATED CELLS = 99.3

Record summary for O=C(O)CC(O)C(=O)O (centres unmarked) [Control 15, malic acid] : reported IN% OF THE UNTREATED CELLS = 102.2

Record summary for O=C1O[C@H]([C@@H](O)CO)C(O)=C1O [Control 18, L-ascorbic acid] : reported IN% OF THE UNTREATED CELLS = 98.5

Record summary for Nc1ncnc2nc[nH]c12 [Control 12, adenine] : reported IN% OF THE UNTREATED CELLS = 99.1

====

Below, each entry is listed alongside its reported IN% OF THE UNTREATED CELLS.
system: Sp2/0-Ag14 mouse myeloma cells; assay: Effect on number of viable Sp2/0-Ag14 cells in culture (trypan blue dye exclusion count); details: mouse, sp2/0-ag14 cells, 48 h
Give a bare numeral; the unit % is implied.

MOLECULE: N[C@@H](Cc1c[nH]c2ccccc12)C(=O)O [Control 3, L-tryptophan]
IN% OF THE UNTREATED CELLS (%): 106.0
--
MOLECULE: O=C1O[C@H]([C@@H](O)CO)C(O)=C1O [Control 19, L-ascorbic acid]
IN% OF THE UNTREATED CELLS (%): 96.0

The record that follows has no IN% OF THE UNTREATED CELLS shown yet.
Record summary for Nc1ncnc2nc[nH]c12 [Control 11, adenine] : reported IN% OF THE UNTREATED CELLS = 98.5
